- Tested on: Pseudomonas aeruginosa
- ASSAY_SUMMARY: Antibacterial activity against 31_C9 allele containing Pseudomonas aeruginosa PAO1 H1104 mutant strain with lon::lux mutation after 24 hrs by broth microdilution technique
- Assay type: functional
- ASSAY_SETUP: PAO1 H1104, 24 h
READOUT_TYPE: MIC (µg/mL)

COMPOUND	READOUT_TYPE	RECORDED_VALUE
CCn1cc(C(=O)O)c(=O)c2ccc(C)nc21	MIC	128
CCn1cc(C(=O)O)c(=O)c2cc(F)c(N3CCNCC3)cc21	MIC	0.15
C[C@@H](O)[C@H]1C(=O)N2C(C(=O)O)=C(SCCNC=N)C[C@H]12 [IMIPENEM ANHYDROUS]	MIC	1
O=C(O)c1cn(C2CC2)c2cc(N3CCNCC3)c(F)cc2c1=O	MIC	0.025
